Origin of values: patent US20240309103A1

- system: T1, monkey NPR1 extracellular domain expressed with a C-terminal myc-myc-hexahistidine (mfNPR1-MMH) (monkey, UniProt P16066 33-473 (human entry))
- T1 construct: also called monomeric monkey NPR1
- T1 chain: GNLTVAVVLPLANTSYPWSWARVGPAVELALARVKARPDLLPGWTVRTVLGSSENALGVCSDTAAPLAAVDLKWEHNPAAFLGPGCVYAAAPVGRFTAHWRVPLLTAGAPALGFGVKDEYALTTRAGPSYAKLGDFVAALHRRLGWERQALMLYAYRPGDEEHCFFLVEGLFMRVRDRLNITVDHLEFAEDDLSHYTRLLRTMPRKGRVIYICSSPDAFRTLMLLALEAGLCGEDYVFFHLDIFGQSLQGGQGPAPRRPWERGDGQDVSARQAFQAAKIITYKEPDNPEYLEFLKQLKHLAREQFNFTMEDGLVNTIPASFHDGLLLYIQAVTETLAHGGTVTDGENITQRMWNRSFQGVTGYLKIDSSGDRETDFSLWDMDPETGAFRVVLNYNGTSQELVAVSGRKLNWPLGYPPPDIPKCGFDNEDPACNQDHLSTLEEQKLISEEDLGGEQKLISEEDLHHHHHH
- experiment-summary: SPR, mAb captured, 37 C
- Description: Equilibrium dissociation constant (KD) for different NPR1 reagents binding to purified anti-NPR1 monoclonal antibodies (mAbs) were determined using a real-time surface plasmon resonance based Biacore 4000 biosensor. All binding studies were performed in 10 mM HEPES, 150 mM NaCl, 3 mM EDTA, and 0.05% v/v Surfactant Tween-20, pH 7.4 (HBS-ET) running buffer at 25° C. and 37° C. […]
experimental-endpoint: 100 nM Ag Bound (RU)
Give bare numbers, in RU.

Solved entries (count: 2):
mAb22805 (antibody, V domains shown) VH: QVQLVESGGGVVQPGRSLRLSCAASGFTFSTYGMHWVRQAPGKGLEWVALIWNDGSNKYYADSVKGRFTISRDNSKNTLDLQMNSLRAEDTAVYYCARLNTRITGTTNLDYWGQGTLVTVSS VL: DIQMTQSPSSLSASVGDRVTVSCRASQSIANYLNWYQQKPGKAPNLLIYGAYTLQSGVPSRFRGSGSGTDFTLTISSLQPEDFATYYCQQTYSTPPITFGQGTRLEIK : 3
mAb25497 (antibody, V domains shown) VH: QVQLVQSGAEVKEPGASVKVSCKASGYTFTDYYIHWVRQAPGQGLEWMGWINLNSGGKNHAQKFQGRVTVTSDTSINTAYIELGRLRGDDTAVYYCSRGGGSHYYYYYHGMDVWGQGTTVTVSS VL: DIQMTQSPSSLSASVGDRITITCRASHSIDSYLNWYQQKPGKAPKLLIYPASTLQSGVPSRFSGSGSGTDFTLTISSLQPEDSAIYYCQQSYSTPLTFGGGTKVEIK : 69

Next, consider the following binder.
Ask | # input binder: mAb25508 (antibody, V domains shown) VH: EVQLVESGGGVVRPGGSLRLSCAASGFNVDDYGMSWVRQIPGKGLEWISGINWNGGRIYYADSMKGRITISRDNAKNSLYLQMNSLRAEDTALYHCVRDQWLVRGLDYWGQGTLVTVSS VL: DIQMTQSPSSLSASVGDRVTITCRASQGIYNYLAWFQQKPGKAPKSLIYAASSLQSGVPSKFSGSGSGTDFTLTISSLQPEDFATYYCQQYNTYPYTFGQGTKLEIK ; wanted: its 100 nM Ag Bound (RU)
Reply | 275
